Collected IC50 for UniProt:P12931 across several studies; molecules listed below.

Item "C=CC(=O)N1CC[C@H](N2CC(C#Cc3c(-c4ccc(Oc5ccccc5)cc4)c4c(N)ncnc4n3C)C2)[C@@H](O)C1" with UniProt:P12931 - IC50? ≤ 0.01 µM

Continue with "COc1cc(Nc2ncnc(-n3c(NCc4cccc(Cl)c4)nc4ccccc43)n2)cc(OC)c1OC" > 8.69 µM

Now try "CCCS(=O)(=O)Nc1ccc(F)c(C(=O)c2c[nH]c3ncc(-c4ccc(OC)nc4OC)cc23)c1F" . ≤ 10 µM

Follow-up entry: "Nc1cccc(-c2cnc3[nH]cc(C(=O)c4cc(O)ccc4F)c3c2)c1" ≤ 10 µM

Then CC(C(N)=O)N1CCC(C#Cc2c(-c3ccc(Oc4ccccc4)cc3)c3c(N)ncnc3n2C(C)C)CC1 (centres unmarked) ? 0.01 to 1 µM

Further, for "CCCS(=O)(=O)Nc1ccc(F)c(C(=O)c2c[nH]c3ncc(-c4ccc(C)nc4)cc23)c1F" ? ≤ 10 µM

Input "COc1cc(Nc2ncnc(N3CCc4cc([N+](=O)[O-])ccc43)n2)cc(OC)c1OC" > 10.6 µM

Proceed to "COc1cccc(Nc2cc(Oc3ccc(NC(=O)Nc4cc(C(C)(C)C)cc(CC(N)=O)c4OC)c4ccccc34)ccn2)c1" 0.063 µM
